system: CCRF-CEM leukemia; assay: NCI-60 one-dose screen, 48 h; settings: 10 µM unless noted
The panel holds about 83,000 compounds, 20% with a hit somewhere; the sample as a whole holds those more often. The source made the active and inactive calls. Rule for the calls: active = growth percent below 10; inactive = the rest.
Labels: active, inactive

>>> assigned_category("CCCNC(=O)Oc1ccc(/C(=C(\\C)c2ccccc2)c2ccc(OCCN3CCCCC3)cc2)cc1")
"inactive"
>>> assigned_category("COc1ccc(C(=O)/C=C/c2ccc(OCc3ccccc3)c(OC)c2)cc1OC")
"inactive"
>>> assigned_category("CCCCCN1C=C/C(=C\\C(=O)N(C)c2cccc3ccccc23)c2ccccc21")
"inactive"
>>> assigned_category("CC(C)CCSc1nc(NNC(N)=O)c(C#N)c(-c2ccccc2)n1")
"inactive"
>>> assigned_category("c1ccc(-c2nn(-c3ccccc3)[n+](-c3cccc4ccccc34)n2)cc1")
"inactive"
>>> assigned_category("CS(=O)(=O)c1ccc(-c2cc3c(oc2=O)-c2ccccc2OC3O)cc1 (stereo unspecified)")
"inactive"
>>> assigned_category("O=C(Nc1sc2c(c1C(=O)O)CCCC2)c1cccc(C(F)(F)F)c1")
"inactive"
>>> assigned_category("CSc1nnc2c(=O)n(C)c(=O)n(C)c2n1")
"inactive"
>>> assigned_category("COc1cc(NCC(O)CN(CC(C)C)C2CCCC2)c2ncccc2c1 (stereo unspecified)")
"inactive"
>>> assigned_category("COC(=O)C(c1ccccc1)C(CC(=O)c1ccccc1)c1ccccc1 (stereo unspecified)")
"inactive"
>>> assigned_category("COc1cc(NCCCN(CC(C)C)CC(C)C)c2ncccc2c1")
"inactive"
>>> assigned_category("[O-][n+]1ccccc1CCN(O)CCc1cccc[n+]1[O-]")
"inactive"
>>> assigned_category("C(=C\\c1n(Cc2ccc3ccccc3c2)c(-c2ccccc2)c(-c2ccccc2)[n+]1Cc1ccc2ccccc2c1)/c1ccccc1")
"active"
>>> assigned_category("Cc1ccc2[nH]c(=S)n(-c3ccc(S(=O)(=O)Nc4ccc(Cl)nn4)cc3)c(=O)c2c1")
"inactive"
>>> assigned_category("O=[N+]([O-])c1cccc(-c2nc(-c3ccc(Cl)cc3Cl)cn2-c2ccccc2)c1")
"inactive"
>>> assigned_category("COc1ccc(-c2cnc(N)nc2-c2ccc(OC)cc2O)cc1")
"inactive"

---

Entries and their growth values follow.
system: IGROV1 ovarian; test: NCI-60 one-dose screen, 48 h (100 = growth as untreated, 0 = no growth, -100 = all killed); conditions: 10 µM unless noted
Compounds without any hit were thinned out: in the full panel of roughly 83,000, 20% have a hit.
REPORTED_METRIC: growth (%)

>>> data_value("Fc1ccc(C2CC(c3cccc(Nc4ccncc4)c3)=NN2c2ccc(Cl)cc2)cc1 (stereo not drawn)")
44.3
>>> data_value("CN1CCN(c2ccc3nc(-c4cc(C(C)(C)C)c(O)c(C(C)(C)C)c4)[nH]c3c2)CC1")
88
>>> data_value("CCCCCCNC(=O)Oc1ccc(/C(=C(/CC)Cc2ccccc2)c2ccc(OCCN(CC)CC)cc2)cc1")
76.6

---

tested on: M14 melanoma; assay: NCI-60 one-dose screen, 48 h (100 = growth as untreated, 0 = no growth, -100 = all killed); conditions: 10 µM unless noted
About 83,000 compounds went through this panel and 20% of them were active in at least one assay; those are over-represented in the sample as a whole.
REPORTED_METRIC: growth (%)

>>> data_value("COc1ccc(-c2nc(SCCC(C)C)nc(N/N=C(/C)c3ccc(C)cc3)c2C#N)cc1")
90.4
>>> data_value("COc1cc(C2CC(c3cccc(Nc4ccncc4)c3)=NN2C(C)=O)cc(OC)c1OC (stereo not given)")
100
>>> data_value("Cc1ccc(O)c(C(=O)O)c1")
116
>>> data_value("Cc1ccccc1CNc1ccc(N2CCOCC2)cc1")
100
>>> data_value("Cn1ncc2c(Nc3ccccc3Cl)nc(Cl)nc21")
124

---

system: HCT-15 colon; test: NCI-60 one-dose screen, 48 h (100 = growth as untreated, 0 = no growth, -100 = all killed); conditions: 10 µM unless noted
Compounds without any hit were thinned out: in the full panel of roughly 83,000, 20% have a hit.
Entries and their growth values follow.
REPORTED_METRIC: growth (%)

>>> data_value("O=C(O)c1ccc[n+](CC(=O)N2CCN(c3cc4c(cc3F)c(=O)c(C(=O)O)cn4C3CC3)CC2)c1")
73.4
>>> data_value("CCN1C(=O)N(CC)C2C1NN=c1s/c(=C3\\C(=O)Nc4ccccc43)c(=O)n12 (stereo not drawn)")
26.8
>>> data_value("CN(C)C(=O)OCc1nc2c(N3CCOCC3)nc(-c3ccccc3)nc2n1C")
-38.6
>>> data_value("CN1CCN(CCCNc2nccc(-c3c(-c4ccc(F)c(O)c4)nc4sccn34)n2)S1(=O)=O")
108
>>> data_value("C[C@]12C[C@H]1CC[C@]1(C)[C@@H]2CC[C@@]23C[C@H](CC[C@H]21)[C@@](O)(CO)C3")
88.6
>>> data_value("COc1ccc(/C=C/c2n[nH]c3ccc(N4CCOC4=O)cc23)cc1")
10.1
>>> data_value("COc1cc(NCC(O)CN(CC(C)C)C2CCCC2)c2ncccc2c1 (stereo not drawn)")
84.2
>>> data_value("CN(Cc1ccccc1)c1nc(Cl)c(C2CC(c3ccc(Cl)cc3)=Cc3[nH][nH]c(=O)c32)s1 (stereo not drawn)")
90.1
>>> data_value("O=C(O)/C=C\\C(=O)N1C/C(=C\\c2ccccc2Cl)C(=O)/C(=C/c2ccccc2Cl)C1")
-48.8
>>> data_value("COc1ccc(-c2nc(N/N=C/c3ccco3)nc(N3CCOCC3)c2C#N)cc1")
88.3
>>> data_value("COc1ccc(/C=C/C(=O)c2ccc(OC)c(OC)c2)cc1O")
56.5
>>> data_value("COc1nccnn1")
98.1
>>> data_value("COc1ccc(C(=O)c2cc3c(N)c(C(=O)Nc4cccc(OC)c4)sc3nc2C)cc1")
16
>>> data_value("N#Cc1ccc(-c2ccc3c(c2)NC(=O)/C3=C\\c2ccc[nH]2)cc1")
58.3
>>> data_value("CCc1c(Nc2ccc(C)cc2)[nH]c(N)nc1=S")
99.7
>>> data_value("CC(=O)O[C@H]1CC[C@@]2(C)[C@@H](CC[C@@H]3[C@@H]2CC[C@@]2(C)[C@H]3CC[C@]2(O)C(C)=O)C1")
102
>>> data_value("Cc1ccc2[nH]c(=S)n(-c3ccc(S(=O)(=O)Nc4ccc(Cl)nn4)cc3)c(=O)c2c1")
101
>>> data_value("Nc1c(C(=O)Nc2ccc(Cl)cc2)cc(-c2nc3ccccc3s2)c(=O)n1NS(=O)(=O)c1ccc(Cl)cc1")
96.7
>>> data_value("CCOC(=O)c1cnc2c(cnn2CC)c1NN=C(C)C")
86
>>> data_value("CCOC(=O)N1CCN(CCCCl)CC1")
105
>>> data_value("COc1ccc(NC(=O)c2sc3nc(C)c(C(=O)CCc4cccc(OC)c4)cc3c2N)cc1")
46.7
>>> data_value("O=C(OC(OC(=O)c1cc(Cl)cc(Cl)c1)c1cccc2ccccc12)c1ccccc1 (stereo not drawn)")
106
>>> data_value("COc1ccc(/C=N/C2=C(C#N)C(c3ccccc3[N+](=O)[O-])c3ccc4ccccc4c3O2)cc1 (stereo not drawn)")
75.3
>>> data_value("Clc1ccc(N2N=C(c3cccc(Nc4ccncc4)c3)CC2c2ccc(Br)cc2)cc1 (stereo not drawn)")
-74.7
>>> data_value("CC(=O)N1c2ccccc2NC2=C(C(=O)N(Cc3ccccc3)C2(C)C)C1c1ccco1 (stereo not drawn)")
15.7
>>> data_value("O=C1CCCN1c1cccc2cccnc12")
101
>>> data_value("O=C(O)CCCCCCCCCCCCCCC(=O)O")
104
>>> data_value("CC(C)Sc1nc(NN)c(C#N)c(-c2ccccc2)n1")
96.5
>>> data_value("CN1C(=O)N(C)[C@H]2NC(NN)=N[C@H]21")
103
>>> data_value("CCN(CC)CCOC(COc1cc(C)cc(C)c1)COc1cc(C)cc(C)c1")
34.5
>>> data_value("Nc1c(C(=O)Nc2cccc3ccncc23)sc2nc3c(cc12)C(=O)CCC3")
35.1
>>> data_value("[O-][n+]1ccccc1CCN(O)CCc1cccc[n+]1[O-]")
99.3
>>> data_value("O=C1Nc2ccccc2/C1=C\\c1cccc(/C=C2/C(=O)Nc3ccccc32)n1")
-81.3

---

tested on: NCI-H23 lung; test: NCI-60 one-dose screen, 48 h (100 = growth as untreated, 0 = no growth, -100 = all killed); conditions: 10 µM unless noted
Compounds without any hit were thinned out: in the full panel of roughly 83,000, 20% have a hit.
# note: exactly 50% is not below, so it is label 0; use label 1 for growth strictly under it

>>> assigned_category("Cc1ccc(C2CC(c3cccc(Nc4ccncc4)c3)=NN2c2ccccc2)cc1 (centres undefined)")
"label 1"
>>> assigned_category("O=C1Nc2c(ccc(Cl)c2Cl)/C1=C/c1ccccn1")
"label 0"
>>> assigned_category("Cn1c2c(Cl)c(Cl)ccc2c2cc(N)[nH]c(=O)c21")
"label 0"
>>> assigned_category("COc1ccc(C(=O)c2cc3c(N)c(C(=O)Nc4cccc(Br)c4C)sc3nc2C)cc1")
"label 1"
>>> assigned_category("CC[C@H](C)[C@@H]1NC(=O)[C@H](Cc2ccc(O)cc2)N(C)C(=O)[C@H](Cc2ccccc2)NC(=O)CN(C)C(=O)[C@@H]2CCCN2C(=O)[C@@H](Cc2ccccc2)N(C)C(=O)[C@H](CC(C)C)NC1=O")
"label 1"
>>> assigned_category("CC1=NNC(=O)C1CCC(=O)N/N=C(\\C)c1ccc2ccccc2c1 (centres undefined)")
"label 0"
>>> assigned_category("COc1ccc(Cn2nc(-c3cc(OC)c(OC)c(OC)c3)c3c2CCc2cnoc2-3)cc1OC")
"label 0"
>>> assigned_category("Cc1c(C(=O)NO)sc2ncnc(Nc3ccc(NC(=S)Nc4ccccc4)cc3)c12")
"label 0"
>>> assigned_category("O=S(=O)(NCCNc1nccc(-c2c(-c3cccc(F)c3)nc3occn23)n1)c1cccc2ccccc12")
"label 0"
>>> assigned_category("CCN(CCNc1cc(OC)cc2cccnc12)CCc1ccccc1")
"label 0"
>>> assigned_category("OC(c1ccccc1)c1ccccn1 (centres undefined)")
"label 0"
>>> assigned_category("NC(=O)c1cccc(-c2cc(C(N)=O)ccc2Cl)c1")
"label 1"
>>> assigned_category("C=CCn1c(SCC(=O)Nc2ccc(C(=O)/C=C/c3cc(OC)c(OC)c(OC)c3)cc2)nnc1-c1cc(OC)c(OC)c(OC)c1")
"label 0"
